Ref: ChEMBL document CHEMBL4808148

- test-target: Protein deacetylase HDAC6 (Homo sapiens) (UniProt Q9UBN7)
- Sequence (whole entry): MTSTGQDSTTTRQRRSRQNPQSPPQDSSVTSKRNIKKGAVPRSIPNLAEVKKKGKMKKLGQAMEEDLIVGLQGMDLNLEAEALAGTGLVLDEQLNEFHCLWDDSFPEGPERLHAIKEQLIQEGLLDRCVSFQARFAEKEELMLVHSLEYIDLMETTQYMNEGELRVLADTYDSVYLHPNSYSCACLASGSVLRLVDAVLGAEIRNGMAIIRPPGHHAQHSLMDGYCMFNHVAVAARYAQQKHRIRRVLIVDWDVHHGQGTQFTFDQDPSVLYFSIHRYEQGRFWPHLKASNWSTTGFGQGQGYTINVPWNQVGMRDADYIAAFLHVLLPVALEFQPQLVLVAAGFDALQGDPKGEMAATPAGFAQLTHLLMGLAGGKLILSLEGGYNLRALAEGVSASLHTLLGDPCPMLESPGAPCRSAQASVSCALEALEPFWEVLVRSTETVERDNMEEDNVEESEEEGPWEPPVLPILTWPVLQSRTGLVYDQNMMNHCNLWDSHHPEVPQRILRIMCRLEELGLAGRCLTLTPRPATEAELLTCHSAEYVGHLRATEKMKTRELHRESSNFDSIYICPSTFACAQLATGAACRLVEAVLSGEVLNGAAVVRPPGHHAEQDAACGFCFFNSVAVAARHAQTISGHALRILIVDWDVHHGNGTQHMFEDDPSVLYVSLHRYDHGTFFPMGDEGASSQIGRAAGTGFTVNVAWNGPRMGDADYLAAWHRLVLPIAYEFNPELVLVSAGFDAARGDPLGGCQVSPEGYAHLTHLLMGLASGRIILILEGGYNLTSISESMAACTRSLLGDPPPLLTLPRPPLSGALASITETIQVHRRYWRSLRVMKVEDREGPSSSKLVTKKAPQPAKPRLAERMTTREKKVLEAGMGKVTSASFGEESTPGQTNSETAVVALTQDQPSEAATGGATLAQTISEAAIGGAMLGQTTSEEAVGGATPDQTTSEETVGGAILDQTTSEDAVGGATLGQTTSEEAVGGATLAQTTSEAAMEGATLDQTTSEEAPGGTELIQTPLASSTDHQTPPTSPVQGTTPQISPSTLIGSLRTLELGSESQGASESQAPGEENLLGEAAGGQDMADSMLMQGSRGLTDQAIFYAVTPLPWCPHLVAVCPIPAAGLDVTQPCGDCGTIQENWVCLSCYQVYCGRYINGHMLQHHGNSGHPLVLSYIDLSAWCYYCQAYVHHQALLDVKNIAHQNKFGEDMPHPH
- assay-setup: at 10 µM
Screen size: about 5,600 compounds; about 150 (2.7%) showed an effect of 50% or more. The sample holds strong results, similar compounds and a random draw of the others, so the mix is not that of the screen.
Some compounds, each annotated with its measured inhibition.
Note to self: number, then unit, no commentary.

As a guide, the following entries are already answered.
CCOC(=O)Nc1ccc(NCc2c(C)cc(C)cc2C)cc1N -1.7%
O=C(c1cc(S(=O)(=O)Nc2ccccc2F)c(F)cc1Cl)N1CCN2CCC[C@@H]2C1 -3.32%
N#Cc1cc(-c2n[nH]c(-c3ccncc3)n2)ccn1 61.8%

Exam item: Request body: readout inhibition, system Protein deacetylase HDAC6 (Homo sapiens) (UniProt Q9UBN7), query CN[C@@H]1[C@@H](O[C@H]2O[C@H](CO)[C@@H](N)[C@H](O)[C@H]2O)O[C@H]2C[C@@H](N)[C@H](O[C@H]3[C@H](O)[C@@H](O)[C@H](N)C[C@@H]3N)O[C@@H]2[C@@H]1O . Return the value.
Marked response: 10.2%

Exam item: Request body: readout inhibition, system Protein deacetylase HDAC6 (Homo sapiens) (UniProt Q9UBN7), query Cc1cn2c(N)c(Cl)cc(C(=O)NCC3CCN(CC(C)C)CC3)c2n1 . Return the value.
Marked response: 4.88%

Exam item: Request body: readout inhibition, system Protein deacetylase HDAC6 (Homo sapiens) (UniProt Q9UBN7), query N#Cc1cnc2c(Cl)cc(NCc3cn(CCN4CCCCCC4)nn3)cc2c1Nc1ccc(F)c(Cl)c1 . Return the value.
Marked response: -2.34%

Exam item: Request body: readout inhibition, system Protein deacetylase HDAC6 (Homo sapiens) (UniProt Q9UBN7), query CCOC(=O)[C@H](CCc1ccccc1)N[C@@H](C)C(=O)N1Cc2cc(OC)c(OC)cc2C[C@H]1C(=O)O . Return the value.
Marked response: -3.25%

Exam item: Request body: readout inhibition, system Protein deacetylase HDAC6 (Homo sapiens) (UniProt Q9UBN7), query O=C(N[C@H]1CCN(C(=O)c2cc(C(F)(F)F)cc(C(F)(F)F)c2)[C@H](Cc2ccc(Cl)cc2)C1)c1ccnc2ccccc12 . Return the value.
Marked response: -1.37%

Exam item: Request body: readout inhibition, system Protein deacetylase HDAC6 (Homo sapiens) (UniProt Q9UBN7), query CSc1nc2ccc3nc(NC(=O)C(c4ccccc4)c4ccccc4)sc3c2s1 . Return the value.
Marked response: -1.3%
